# Tested on: A549
# assay info: Antitumor activity against human A549 cells assessed as inhibition of cell viability incubated for 48 hrs in presence of ribociclib by MTT assay
# Format: functional, cell-based
# measurement conditions: A549, 48 h
pIC50: −log10 of the molar value.

chemical string: COc1cc(OC)c2c(=O)[nH]c(-c3cc(C)c(OCCO)c(C)c3)nc2c1
pIC50: 4.73

----------
# assay info: Clearance in male Sprague-Dawley rat at 5 mg/kg, iv measured up to 24 hrs by LC-MS/MS analysis
# Assay type: ADME, organism-based
# measurement conditions: in vivo

chemical string: COc1cc(-c2nc3ccc(F)cc3c(=O)[nH]2)cc(OC)c1OCC(=O)N1CCN(c2ccc(Nc3ncc4cc(C(=O)N(C)C)n(C5CCCC5)c4n3)nc2)CC1
clearance, mL/min/kg: 22.3

----------
# Tested on: NCI-H460
# assay info: cells
# measurement conditions: Homo sapiens, NCI-H460, 48 h
# Description: Antitumor activity against human NCI-H460 cells assessed as inhibition of cell viability incubated for 48 hrs by MTT assay
pIC50: −log10 of the molar value.

chemical string: COc1cc(OC)c2c(=O)[nH]c(-c3cc(C)c(OCCCC(=O)NNc4ncc5cc(C(=O)N(C)C)n(C6CCCC6)c5n4)c(C)c3)nc2c1
subject of test: NCI-H460
bound operator: =
pIC50: 4.59

chemical string: COc1cc(OC)c2c(=O)[nH]c(-c3ccc(OCC(=O)N4CCN(c5ccc(Nc6ncc7cc(C(=O)N(C)C)n(C8CCCC8)c7n6)nc5)CC4)cc3)nc2c1
subject of test: NCI-H460
bound operator: =
pIC50: 4.73

chemical string: CN(C)C(=O)c1cc2cnc(Nc3ccc(N4CCN(C(=O)COc5ccc(-c6nc7cc(Cl)ccc7c(=O)[nH]6)cc5)CC4)cn3)nc2n1C1CCCC1
subject of test: NCI-H460
bound operator: <
pIC50: 4.40

chemical string: CN(C)C(=O)c1cc2cnc(Nc3ccc(N4CCN(C(=O)COc5ccc(-c6nc7ccc(F)cc7c(=O)[nH]6)cc5)CC4)cn3)nc2n1C1CCCC1
subject of test: NCI-H460
bound operator: =
pIC50: 4.66

chemical string: Cc1ccc2nc(-c3ccc(OCC(=O)N4CCN(c5ccc(Nc6ncc7cc(C(=O)N(C)C)n(C8CCCC8)c7n6)nc5)CC4)cc3)[nH]c(=O)c2c1
subject of test: NCI-H460
bound operator: <
pIC50: 4.40

chemical string: CN(C)C(=O)c1cc2cnc(Nc3ccc(N4CCN(C(=O)COc5ccc(-c6nc7ccccc7c(=O)[nH]6)cc5)CC4)cn3)nc2n1C1CCCC1
subject of test: NCI-H460
bound operator: =
pIC50: 4.73

----------
Reported IC50 values follow for various compounds
# Test system: NCI-H460
# assay info: cells
# measurement conditions: Homo sapiens, NCI-H460, 48 h

chemical string: COc1cc(-c2nc3ccc(F)cc3c(=O)[nH]2)ccc1OCC(=O)N1CCN(c2ccc(Nc3ncc4cc(C(=O)N(C)C)n(C5CCCC5)c4n3)nc2)CC1
IC50: 16.4 µM
//
chemical string: Cc1cccc2c(=O)[nH]c(-c3ccc(OCC(=O)N4CCN(c5ccc(Nc6ncc7cc(C(=O)N(C)C)n(C8CCCC8)c7n6)nc5)CC4)cc3)nc12
IC50: > 40 µM
//
chemical string: CN(C)C(=O)c1cc2cnc(Nc3ccc(N4CCN(C(=O)COc5ccc(-c6nc7cc(C(F)(F)F)ccc7c(=O)[nH]6)cc5)CC4)cn3)nc2n1C1CCCC1
IC50: 34.4 µM
//
chemical string: COc1cc(OC)c2c(=O)[nH]c(-c3cc(C)c(OCCO)c(C)c3)nc2c1
IC50: > 40 µM
//
chemical string: CN(C)C(=O)c1cc2cnc(Nc3ccc(N4CCN(C(=O)COc5ccc(-c6nc7ccc(Cl)cc7c(=O)[nH]6)cc5)CC4)cn3)nc2n1C1CCCC1
IC50: > 40 µM
//
chemical string: CN(C)C(=O)c1cc2cnc(Nc3ccc(N4CCNCC4)cn3)nc2n1C1CCCC1
IC50: 38.7 µM
//
chemical string: COc1cc(OC)c2c(=O)[nH]c(-c3cc(Br)c(OCC(=O)N4CCN(c5ccc(Nc6ncc7cc(C(=O)N(C)C)n(C8CCCC8)c7n6)nc5)CC4)c(Br)c3)nc2c1
IC50: 38.8 µM

----------
# subject of test: Cyclin-dependent kinase 4 (Homo sapiens)
# Sequence (P11802 whole entry): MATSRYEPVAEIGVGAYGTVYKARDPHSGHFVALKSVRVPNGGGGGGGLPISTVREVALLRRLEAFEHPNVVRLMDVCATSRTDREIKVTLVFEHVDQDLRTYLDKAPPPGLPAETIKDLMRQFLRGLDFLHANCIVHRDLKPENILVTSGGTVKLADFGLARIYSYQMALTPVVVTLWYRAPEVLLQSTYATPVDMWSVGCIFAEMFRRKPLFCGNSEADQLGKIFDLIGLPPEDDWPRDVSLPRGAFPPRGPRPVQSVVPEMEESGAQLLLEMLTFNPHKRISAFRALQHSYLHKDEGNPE
pIC50: −log10 of the molar value.

chemical string: COc1cc(-c2nc3ccc(F)cc3c(=O)[nH]2)cc(OC)c1OCC(=O)N1CCN(c2ccc(Nc3ncc4cc(C(=O)N(C)C)n(C5CCCC5)c4n3)nc2)CC1
pIC50: 7.07

----------
# System: A549
# assay info: cells
# measurement conditions: Homo sapiens, A549, 48 h
# Description: Antitumor activity against human A549 cells assessed as inhibition of cell viability incubated for 48 hrs by MTT assay
pIC50: −log10 of the molar value.

chemical string: COc1cc2nc(-c3ccc(OCC(=O)N4CCN(c5ccc(Nc6ncc7cc(C(=O)N(C)C)n(C8CCCC8)c7n6)nc5)CC4)cc3)[nH]c(=O)c2cc1OC
subject of test: A549
pIC50: < 4.40
--
chemical string: COc1cc(OC)c2c(=O)[nH]c(-c3cc(C)c(OCCCCC(=O)NNc4ncc5cc(C(=O)N(C)C)n(C6CCCC6)c5n4)c(C)c3)nc2c1
subject of test: A549
pIC50: < 4.40
--
chemical string: COc1ccc2nc(-c3ccc(OCC(=O)N4CCN(c5ccc(Nc6ncc7cc(C(=O)N(C)C)n(C8CCCC8)c7n6)nc5)CC4)cc3)[nH]c(=O)c2c1
subject of test: A549
pIC50: 4.66
--
chemical string: Cc1ccc2nc(-c3ccc(OCC(=O)N4CCN(c5ccc(Nc6ncc7cc(C(=O)N(C)C)n(C8CCCC8)c7n6)nc5)CC4)cc3)[nH]c(=O)c2c1
subject of test: A549
pIC50: 4.48
--
chemical string: COc1cc(OC)c2c(=O)[nH]c(-c3cc(C)c(OCCO)c(C)c3)nc2c1
subject of test: A549
pIC50: < 4.40
--
chemical string: COc1cc(OC)c2c(=O)[nH]c(-c3cc(C)c(OCCCC(=O)NNc4ncc5cc(C(=O)N(C)C)n(C6CCCC6)c5n4)c(C)c3)nc2c1
subject of test: A549
pIC50: 4.49
--
chemical string: Cc1ccc2c(=O)[nH]c(-c3ccc(OCC(=O)N4CCN(c5ccc(Nc6ncc7cc(C(=O)N(C)C)n(C8CCCC8)c7n6)nc5)CC4)cc3)nc2c1
subject of test: A549
pIC50: < 4.40
--
chemical string: COc1cc(OC)c2c(=O)[nH]c(-c3ccc(OCC(=O)N4CCN(c5ccc(Nc6ncc7cc(C(=O)N(C)C)n(C8CCCC8)c7n6)nc5)CC4)c(F)c3)nc2c1
subject of test: A549
pIC50: < 4.40

----------
# Test system: A549
# assay info: cells
# measurement conditions: Homo sapiens, A549, 48 h
observable: IC50 (µM)

chemical string: CN(C)C(=O)c1cc2cnc(Nc3ccc(N4CCN(C(=O)COc5ccc(-c6nc7ccccc7c(=O)[nH]6)cc5)CC4)cn3)nc2n1C1CCCC1
subject of test: A549
bound operator: =
reported value: 28.3

chemical string: CN(C)C(=O)c1cc2cnc(Nc3ccc(N4CCNCC4)cn3)nc2n1C1CCCC1
subject of test: A549
bound operator: >
reported value: 40

chemical string: COc1cccc2nc(-c3ccc(OCC(=O)N4CCN(c5ccc(Nc6ncc7cc(C(=O)N(C)C)n(C8CCCC8)c7n6)nc5)CC4)cc3)[nH]c(=O)c12
subject of test: A549
bound operator: =
reported value: 18.8

chemical string: CN(C)C(=O)c1cc2cnc(Nc3ccc(N4CCN(C(=O)COc5ccc(-c6nc7cc(C(F)(F)F)ccc7c(=O)[nH]6)cc5)CC4)cn3)nc2n1C1CCCC1
subject of test: A549
bound operator: >
reported value: 40

chemical string: COc1cc(-c2nc3ccc(F)cc3c(=O)[nH]2)cc(OC)c1OCC(=O)N1CCN(c2ccc(Nc3ncc4cc(C(=O)N(C)C)n(C5CCCC5)c4n3)nc2)CC1
subject of test: A549
bound operator: =
reported value: 4.59

chemical string: COc1cc(-c2nc3ccc(F)cc3c(=O)[nH]2)ccc1OCC(=O)N1CCN(c2ccc(Nc3ncc4cc(C(=O)N(C)C)n(C5CCCC5)c4n3)nc2)CC1
subject of test: A549
bound operator: >
reported value: 40

----------
# System: NCI-H460
# assay info: cells
# measurement conditions: Homo sapiens, NCI-H460, 48 h
pIC50: −log10 of the molar value.
Below, each entry is listed alongside its reported pIC50.

chemical string: CN(C)C(=O)c1cc2cnc(Nc3ccc(N4CCN(C(=O)COc5ccc(-c6nc7ccc(F)cc7c(=O)[nH]6)cc5F)CC4)cn3)nc2n1C1CCCC1
subject of test: NCI-H460
pIC50: < 4.40
--
chemical string: CN(C)C(=O)c1cc2cnc(Nc3ccc(N4CCN(C(=O)COc5c(Br)cc(-c6nc7ccc(F)cc7c(=O)[nH]6)cc5Br)CC4)cn3)nc2n1C1CCCC1
subject of test: NCI-H460
pIC50: < 4.40
--
chemical string: COc1cccc2nc(-c3ccc(OCC(=O)N4CCN(c5ccc(Nc6ncc7cc(C(=O)N(C)C)n(C8CCCC8)c7n6)nc5)CC4)cc3)[nH]c(=O)c12
subject of test: NCI-H460
pIC50: < 4.40
